The origin of these recorded values is patent US20220387557A1.

- targetOrTestSystem: T1, Fc tagged human TNFR1 (Sino Biological) (human, UniProt P19438 22-211, limits assumed)
- T1 construct: Bought reagent; also called hTNFR1; hTNFR1-Fc; not shown: Fc tag of the bought protein
- T1 sequence (looked up): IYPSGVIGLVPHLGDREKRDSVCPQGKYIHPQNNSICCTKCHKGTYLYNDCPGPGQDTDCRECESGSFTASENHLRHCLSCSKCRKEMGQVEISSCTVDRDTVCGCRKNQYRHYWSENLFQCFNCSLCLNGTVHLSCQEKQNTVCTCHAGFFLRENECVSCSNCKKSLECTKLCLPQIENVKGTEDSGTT
- method: SPR, Biacore T200 multi cycle kinetics, receptor-Fc captured on Protein A chip, TNF 1.25-40 nM, 1:1 model
Exam item: assign Y to entries whose Kd is below 0.06 nM and N to entries at or above 0.06 nM. Note that a value of exactly 0.06 nM receives N.

Before answering, review these 5 worked examples.
{"binder": "TNF mutein B6 (ligand, Human TNF mutein, TGTYSY at positions 84-89; not shown: C-terminal FLAG tag and His6 tag from vector pANT65) VRSSSRTPSDKPVAHVVANPQAEGQLQWLNRRANALLANGVELRDNQLVVPSEGLYLIYSQVLFKGQGCPSTHVLLTHTISRITGTYSYKVNLLSAIKSPCQRETPEGAEAKPWYEPIYLGGVFQLEKGDRLSAEINRPDYLDFAESGQVYFGIIAL", "labelClass": "N"}
{"binder": "TNF mutein B2 (ligand, Human TNF mutein, TASYSG at positions 84-89; not shown: C-terminal FLAG tag and His6 tag from vector pANT65) VRSSSRTPSDKPVAHVVANPQAEGQLQWLNRRANALLANGVELRDNQLVVPSEGLYLIYSQVLFKGQGCPSTHVLLTHTISRITASYSGKVNLLSAIKSPCQRETPEGAEAKPWYEPIYLGGVFQLEKGDRLSAEINRPDYLDFAESGQVYFGIIAL", "labelClass": "Y"}
{"binder": "TNF mutein C4 (ligand, Human TNF mutein, SHSVEG at positions 84-89; not shown: C-terminal FLAG tag and His6 tag from vector pANT65) VRSSSRTPSDKPVAHVVANPQAEGQLQWLNRRANALLANGVELRDNQLVVPSEGLYLIYSQVLFKGQGCPSTHVLLTHTISRISHSVEGKVNLLSAIKSPCQRETPEGAEAKPWYEPIYLGGVFQLEKGDRLSAEINRPDYLDFAESGQVYFGIIAL", "labelClass": "Y"}
{"binder": "TNF variant C9 (ligand, Human TNF variant from Library 2, AVTYQT at positions 84-89; not shown: C-terminal FLAG tag and His6 tag from vector pANT65) VRSSSRTPSDKPVAHVVANPQAEGQLQWINGRANALLANGVELRDNQLVVPSEGLYLIYSQVLFKGQGCPSTHVLLTHTISRIAVTYQTKVNLLSAIKSPCQRETPEGAEAKPWYEPIYLGGVFQLEKGDRLSAEINRPDYLDDADSGQVYFGIIAL", "labelClass": "N"}
{"binder": "TNF mutein C8 (ligand, Human TNF mutein, SQTHDG at positions 84-89; not shown: C-terminal FLAG tag and His6 tag from vector pANT65) VRSSSRTPSDKPVAHVVANPQAEGQLQWLNRRANALLANGVELRDNQLVVPSEGLYLIYSQVLFKGQGCPSTHVLLTHTISRISQTHDGKVNLLSAIKSPCQRETPEGAEAKPWYEPIYLGGVFQLEKGDRLSAEINRPDYLDFAESGQVYFGIIAL", "labelClass": "N"}

[in] Please check: Kd for TNF mutein F3 (ligand, Human TNF mutein, TTTYRL at positions 84-89; not shown: C-terminal FLAG tag and His6 tag from vector pANT65) VRSSSRTPSDKPVAHVVANPQAEGQLQWLNRRANALLANGVELRDNQLVVPSEGLYLIYSQVLFKGQGCPSTHVLLTHTISRITTTYRLKVNLLSAIKSPCQRETPEGAEAKPWYEPIYLGGVFQLEKGDRLSAEINRPDYLDFAESGQVYFGIVAL , strictly under 0.06 nM or not?
[out] N

[in] Please check: Kd for TNF mutein B4 (ligand, Human TNF mutein, SESHDG at positions 84-89; not shown: C-terminal FLAG tag and His6 tag from vector pANT65) VRSSSHTPSDKPVAHVVANPQAEGQLQWLNRRANALLANGVELRDNQLVVPSEGLYLIYSQVLFKGQGCPSTHVLLTHTISRISESHDGKVNLLSAIKSPCQRETPEGAEAKPWYEPIYLGGVFQLEKGDRLSAEINRPDYLDFAESGQVYFGIIAL , strictly under 0.06 nM or not?
[out] N
